assay_system: Monoglyceride lipase (Homo sapiens)
Sequence (whole entry): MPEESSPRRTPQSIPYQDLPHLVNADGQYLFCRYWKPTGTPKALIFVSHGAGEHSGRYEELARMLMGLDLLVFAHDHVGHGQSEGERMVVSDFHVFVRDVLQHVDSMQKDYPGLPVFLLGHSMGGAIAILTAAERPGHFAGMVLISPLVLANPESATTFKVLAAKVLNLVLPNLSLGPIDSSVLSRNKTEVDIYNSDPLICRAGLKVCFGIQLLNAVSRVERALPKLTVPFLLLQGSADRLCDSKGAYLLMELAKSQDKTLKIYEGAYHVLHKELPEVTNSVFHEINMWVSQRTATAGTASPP
assay: Inhibition of human recombinant MAGL assessed as remaining activity at 1 uM after 10 mins by spectrophotometry relative to control
measured_property: Activity (%)

                  structure_smiles_string  measured_property  measurement_unit  measurement
0  O=C(Nc1cccc(-c2ccc(Cl)cc2)c1)OC1CCCCC1           Activity                 %           85
1      S=C(Nc1cccc(-c2ccccc2)c1)NC1CCCCC1           Activity                 %           93
2     S=C(Nc1cccc(-c2ccccc2)c1)OC1CCCCCC1           Activity                 %           79
3    O=C(Nc1cccc(-c2ccccc2)c1)OC1CCCCCCC1           Activity                 %          101
4        O=C(Nc1cccc(-c2ccccc2)c1)OC1CCC1           Activity                 %           97
5     O=C(Nc1cccc(-c2ccccc2)c1)OC1CCCCCC1           Activity                 %           94
